// i.v. LD50 lookup, one value per entry
system: Mice (female CD-1); test: i.v. LD50 in mice (systemic toxicity); format: in vivo; settings: 300 mg I/ml, 37° C., injection rate 1 ml/min
Value expressed in gI/kg; do not type the unit.

{"columns": ["compound", "units_symbol", "value_measured"],
 "data": [
  ["CC(=O)N(CC(O)CO)c1c(I)c(C(=O)NCC(O)CO)c(I)c(C(=O)NCC(O)CO)c1I (centres unmarked) [Iohexol]", "gI/kg", 17.9]
]}

I'd like to know its i.v. LD50. The compound in question is CC(=O)N(CC(O)CO)c1c(I)c(C(=O)NCCO)c(I)c(C(=O)NCC(O)CO)c1I (centres unmarked)
18.8
